Data provenance: PubChem BioAssay AID2029

Assay: modulators of CIT2-GFP expression in yeast, primary screen, S. cerevisiae, GFP fusion, multiplex flow cytometry, MLPCN library (AID 2029);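 further: ratio of well median GFP fluorescence to mean of DMSO wells on the plate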
Conditions: S. cerevisiae CIT2-GFP strain, 3 h, at 10 µM, 100 means same as DMSO wells
About 210 (0.066%) of roughly 320,000 compounds were called active.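 How the source made its calls: active means GFP response relative to DMSO above a set limit, near the screen mean plus 3 SD (cut at about 150% in these data); inconclusive means Fewer than 70 cells measured for a yeast strain; inactive means the rest.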 What follows is part of a selection rich in actives, with near analogues and random picks from the rest.
Thanks in advance; please answer with one of these: YES = active, NO = inactive

Name the outcome recorded for "CCn1c(/C=C/c2ccc([N+](=O)[O-])o2)nc2ccccc2c1=O" in the assay. YES

Next record, please: "Cc1ccc(C)c(Cn2nnc3c(=O)[nH]c(C(=O)Nc4ccc(F)cc4)nc32)c1" NO

Next record, please: Nc1ccc(OCC(O)C[n+]2ccc(CCS(=O)(=O)[O-])cc2)cc1 (stereo not given) NO

Next record, please: CC1Cc2ccccc2N1CC(=O)Nc1ccc2c(c1)OC(F)(F)O2 (stereo not given) NO

Next record, please: "Cc1c(C2=CCN(S(=O)(=O)c3ccc(Cl)cc3)CC2)c2ccccc2n1C" NO

Next record, please: "CCn1c(=O)c([N+](=O)[O-])c(NCc2ccc3c(c2)OCO3)c2ccccc21" NO

Next record, please: "CCc1ccc(Oc2coc3cc(O)ccc3c2=O)cc1" NO

Next record, please: "COc1ccccc1C(=O)OCC(=O)Nc1cccc(S(=O)(=O)NC2=NCCCCC2)c1" NO

Next record, please: "CCOc1ccc(OCC)c(NC(=O)CSc2nnc(Cn3cnc4ccccc43)n2C)c1" NO

Next record, please: "CC(=O)Nc1ccc(S(=O)(=O)Nc2ccc(-c3ccc4nnc(C)n4n3)cc2)cc1" NO
